Assay read-out pIC50; system under study: UniProtKB P48736.
Entry type: numeric. Quantity: pIC50, the -log10 of concentration in molar units.

Input line: I'd like to know its pIC50. The molecule in question is `CN1CCN(Cc2cc3nc(-n4c(C(F)F)nc5ccccc54)cc(N4CCOCC4)n3n2)CC1`
Output line: 4.75

Input line: I'd like to know its pIC50. The molecule in question is NC1CCN(C(=O)c2cc3nc(-n4c(C(F)F)nc5ccccc54)cc(N4CCOCC4)n3n2)C1 (stereo not drawn)
Output line: 4.63

Input line: I'd like to know its pIC50. The molecule in question is `CC(=O)NC1CCN(C(=O)c2cc3nc(-n4c(C(F)F)nc5ccccc54)cc(N4CCOCC4)n3n2)CC1`
Output line: 5.77

Input line: I'd like to know its pIC50. The molecule in question is `CC(C)N1CCN(Cc2cc3nc(-n4c(C(F)F)nc5ccccc54)cc(N4CCOCC4)n3n2)CC1`
Output line: 4.88

Input line: I'd like to know its pIC50. The molecule in question is `FC(F)c1nc2ccccc2n1-c1cc(N2CCOCC2)n2nc(CN3CCOCC3)cc2n1`
Output line: 5.86

Input line: I'd like to know its pIC50. The molecule in question is `O=C(c1cc2nc(-n3c(C(F)F)nc4ccccc43)cc(N3CCOCC3)n2n1)N1CCC(CO)CC1`
Output line: 5.75

Input line: I'd like to know its pIC50. The molecule in question is `C[C@H]1COCCN1Cc1cc2nc(-n3c(C(F)F)nc4ccccc43)cc(N3CCOCC3)n2n1`
Output line: 6.23

Input line: I'd like to know its pIC50. The molecule in question is `O=C(c1cc2nc(-n3c(C(F)F)nc4ccccc43)cc(N3CCOCC3)n2n1)N1CCC(O)CC1`
Output line: 5.68

Input line: I'd like to know its pIC50. The molecule in question is `CC(C)(C)N1CCN(Cc2cc3nc(-n4c(C5CC5)nc5ccccc54)cc(N4CCOCC4)n3n2)CC1`
Output line: 3.57

Input line: I'd like to know its pIC50. The molecule in question is `FC(F)c1nc2ccccc2n1-c1cc(N2CCOCC2)n2nc(CN3CCC(N4CCOCC4)CC3)cc2n1`
Output line: 5.32

Input line: I'd like to know its pIC50. The molecule in question is `CS(=O)(=O)N1CCN(Cc2cc3nc(-n4c(C(F)F)nc5ccccc54)cc(N4CCOCC4)n3n2)CC1`
Output line: 6.95

Input line: I'd like to know its pIC50. The molecule in question is `CC(C)(O)C1CCN(C(=O)c2cc3nc(-n4c(C(F)F)nc5ccccc54)cc(N4CCOCC4)n3n2)CC1`
Output line: 5.61

Input line: I'd like to know its pIC50. The molecule in question is `CC(C)(C(N)=O)N1CCN(C(=O)c2cc3nc(-n4c(C(F)F)nc5ccccc54)cc(N4CCOCC4)n3n2)CC1`
Output line: 5.44

Input line: I'd like to know its pIC50. The molecule in question is `CC1(O)CCN(C(=O)c2cc3nc(-n4c(C(F)F)nc5ccccc54)cc(N4CCOCC4)n3n2)CC1`
Output line: 5.74

Input line: I'd like to know its pIC50. The molecule in question is `O[C@H]1CCN(Cc2cc3nc(-n4c(C(F)F)nc5ccccc54)cc(N4CCOCC4)n3n2)C1`
Output line: 4.96

Input line: I'd like to know its pIC50. The molecule in question is `NC(=O)C1CCN(C(=O)c2cc3nc(-n4c(C(F)F)nc5ccccc54)cc(N4CCOCC4)n3n2)CC1`
Output line: 5.55

Input line: I'd like to know its pIC50. The molecule in question is OCC1CCCN1Cc1cc2nc(-n3c(C(F)F)nc4ccccc43)cc(N3CCOCC3)n2n1 (stereo not drawn)
Output line: 5.35

Input line: I'd like to know its pIC50. The molecule in question is `CC(C)(O)C1CCN(Cc2cc3nc(-n4c(C(F)F)nc5ccccc54)cc(N4CCOCC4)n3n2)CC1`
Output line: 5.20

Input line: I'd like to know its pIC50. The molecule in question is `N#CC1CCN(Cc2cc3nc(-n4c(C(F)F)nc5ccccc54)cc(N4CCOCC4)n3n2)CC1`
Output line: 5.50

Input line: I'd like to know its pIC50. The molecule in question is `O=C(C1CC1)N1CCN(Cc2cc3nc(-n4c(C(F)F)nc5ccccc54)cc(N4CCOCC4)n3n2)CC1`
Output line: 6.81

Input line: I'd like to know its pIC50. The molecule in question is `CNC(=O)CN1CCN(C(=O)c2cc3nc(-n4c(C(F)F)nc5ccccc54)cc(N4CCOCC4)n3n2)CC1`
Output line: 5.66

Input line: I'd like to know its pIC50. The molecule in question is O=C(c1cc2nc(-n3c(C(F)F)nc4ccccc43)cc(N3CCOCC3)n2n1)N1CCCC1CO (stereo not drawn)
Output line: 5.69

Input line: I'd like to know its pIC50. The molecule in question is `CC(C)(C)N1CCN(Cc2cc3nc(-n4c(C(F)F)nc5ccccc54)cc(N4CCOCC4)n3n2)CC1`
Output line: 4.77

Input line: I'd like to know its pIC50. The molecule in question is CCOC(=O)C1CCCN(Cc2cc3nc(-n4c(C(F)F)nc5ccccc54)cc(N4CCOCC4)n3n2)C1 (stereo not drawn)
Output line: 5.37

Input line: I'd like to know its pIC50. The molecule in question is `O[C@@H]1CCN(Cc2cc3nc(-n4c(C(F)F)nc5ccccc54)cc(N4CCOCC4)n3n2)C1`
Output line: 5.07

Input line: I'd like to know its pIC50. The molecule in question is `O=C(c1cc2nc(-n3c(C(F)F)nc4ccccc43)cc(N3CCOCC3)n2n1)N1CCC(N2CCOCC2)CC1`
Output line: 5.23

Input line: I'd like to know its pIC50. The molecule in question is `CC1(O)CCN(Cc2cc3nc(-n4c(C(F)F)nc5ccccc54)cc(N4CCOCC4)n3n2)CC1`
Output line: 5.12

Input line: I'd like to know its pIC50. The molecule in question is `CC(=O)NC1CCN(Cc2cc3nc(-n4c(C(F)F)nc5ccccc54)cc(N4CCOCC4)n3n2)CC1`
Output line: 5.82

Input line: I'd like to know its pIC50. The molecule in question is `CN1CCN(C(=O)c2cc3nc(-n4c(C(F)F)nc5ccccc54)cc(N4CCOCC4)n3n2)CC1`
Output line: 4.94

Input line: I'd like to know its pIC50. The molecule in question is `CC(C)(C)N1CCN(C(=O)c2cc3nc(-n4c(C(F)F)nc5ccccc54)cc(N4CCOCC4)n3n2)CC1`
Output line: 4.31

---

I'd be grateful if you could share measured Fold Selectivity γ/δ for these entries.
tested_on: PI3Kγ (Homo sapiens, UniProt P48736)
Construct: purchased Merck Millipore
Sequence (P48736 whole entry): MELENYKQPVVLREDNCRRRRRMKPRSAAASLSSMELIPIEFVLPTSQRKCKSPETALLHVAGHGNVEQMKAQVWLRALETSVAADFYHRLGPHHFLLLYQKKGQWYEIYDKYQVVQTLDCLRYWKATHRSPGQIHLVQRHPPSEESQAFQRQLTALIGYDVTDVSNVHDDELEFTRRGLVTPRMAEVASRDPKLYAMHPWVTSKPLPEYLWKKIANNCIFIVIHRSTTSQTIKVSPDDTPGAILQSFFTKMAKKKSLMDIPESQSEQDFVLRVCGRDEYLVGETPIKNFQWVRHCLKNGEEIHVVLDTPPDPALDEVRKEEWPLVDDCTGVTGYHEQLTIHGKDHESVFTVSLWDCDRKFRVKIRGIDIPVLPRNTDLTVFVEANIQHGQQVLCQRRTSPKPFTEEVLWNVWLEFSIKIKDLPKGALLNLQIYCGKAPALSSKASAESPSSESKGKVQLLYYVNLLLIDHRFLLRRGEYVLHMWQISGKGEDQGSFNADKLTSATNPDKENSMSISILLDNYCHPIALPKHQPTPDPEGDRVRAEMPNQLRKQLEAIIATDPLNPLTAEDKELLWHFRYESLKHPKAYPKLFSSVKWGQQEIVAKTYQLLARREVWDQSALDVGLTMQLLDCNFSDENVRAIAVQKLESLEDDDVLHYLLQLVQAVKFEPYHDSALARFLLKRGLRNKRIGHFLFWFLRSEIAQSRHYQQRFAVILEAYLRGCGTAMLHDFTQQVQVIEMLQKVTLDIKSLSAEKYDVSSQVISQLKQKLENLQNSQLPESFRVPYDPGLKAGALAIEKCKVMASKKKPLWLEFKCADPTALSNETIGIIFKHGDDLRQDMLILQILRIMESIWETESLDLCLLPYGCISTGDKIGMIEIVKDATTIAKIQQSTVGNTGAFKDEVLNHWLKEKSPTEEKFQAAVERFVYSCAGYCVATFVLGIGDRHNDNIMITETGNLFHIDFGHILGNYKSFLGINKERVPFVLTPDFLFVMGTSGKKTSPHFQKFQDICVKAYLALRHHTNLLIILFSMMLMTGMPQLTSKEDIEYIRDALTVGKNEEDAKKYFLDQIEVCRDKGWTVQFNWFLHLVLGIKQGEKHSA
test_summary: In vitro PI3K inhibition assay (ADP-Glo kinase assay), PI3Kγ
Format: biochemical
assay_context: ratio IC50 PI3Kγ / IC50 PI3Kδ
Would you mind answering with just the numeric figure?

Input line: I'd like to know its Fold Selectivity γ/δ. The compound in question is `CC(C)(C(N)=O)N1CCN(C(=O)c2cc3nc(-n4c(C(F)F)nc5ccccc54)cc(N4CCOCC4)n3n2)CC1`
Output line: 48

Input line: I'd like to know its Fold Selectivity γ/δ. The compound in question is `CC(C)(C)N1CCN(Cc2cc3nc(-n4c(C(F)F)nc5ccccc54)cc(N4CCOCC4)n3n2)CC1`
Output line: 939

Input line: I'd like to know its Fold Selectivity γ/δ. The compound in question is `CN1CCN(Cc2cc3nc(-n4c(C(F)F)nc5ccccc54)cc(N4CCOCC4)n3n2)CC1`
Output line: 50

Input line: I'd like to know its Fold Selectivity γ/δ. The compound in question is `O[C@H]1CCN(Cc2cc3nc(-n4c(C(F)F)nc5ccccc54)cc(N4CCOCC4)n3n2)C1`
Output line: 11

Input line: I'd like to know its Fold Selectivity γ/δ. The compound in question is CCOC(=O)C1CCCN(Cc2cc3nc(-n4c(C(F)F)nc5ccccc54)cc(N4CCOCC4)n3n2)C1 (stereo not shown)
Output line: 21

Input line: I'd like to know its Fold Selectivity γ/δ. The compound in question is `CC(C)(C)N1CCN(Cc2cc3nc(-n4c(C5CC5)nc5ccccc54)cc(N4CCOCC4)n3n2)CC1`
Output line: 253

Input line: I'd like to know its Fold Selectivity γ/δ. The compound in question is `CS(=O)(=O)N1CCN(Cc2cc3nc(-n4c(C(F)F)nc5ccccc54)cc(N4CCOCC4)n3n2)CC1`
Output line: 2.6

Input line: I'd like to know its Fold Selectivity γ/δ. The compound in question is `O=C(c1cc2nc(-n3c(C(F)F)nc4ccccc43)cc(N3CCOCC3)n2n1)N1CCOCC1`
Output line: 38

Input line: I'd like to know its Fold Selectivity γ/δ. The compound in question is `CCc1nc2ccccc2n1-c1cc(N2CCOCC2)n2nc(CN3CCN(C(C)(C)C)CC3)cc2n1`
Output line: 671

Input line: I'd like to know its Fold Selectivity γ/δ. The compound in question is `CC1(O)CCN(C(=O)c2cc3nc(-n4c(C(F)F)nc5ccccc54)cc(N4CCOCC4)n3n2)CC1`
Output line: 8.5

Input line: I'd like to know its Fold Selectivity γ/δ. The compound in question is `CC(=O)NC1CCN(C(=O)c2cc3nc(-n4c(C(F)F)nc5ccccc54)cc(N4CCOCC4)n3n2)CC1`
Output line: 12

Input line: I'd like to know its Fold Selectivity γ/δ. The compound in question is `O=C(c1cc2nc(-n3c(C(F)F)nc4ccccc43)cc(N3CCOCC3)n2n1)N1CCC(F)(F)CC1`
Output line: 45

Input line: I'd like to know its Fold Selectivity γ/δ. The compound in question is `CC(C)(C(N)=O)N1CCN(Cc2cc3nc(-n4c(C(F)F)nc5ccccc54)cc(N4CCOCC4)n3n2)CC1`
Output line: 71

Input line: I'd like to know its Fold Selectivity γ/δ. The compound in question is `O=C(c1cc2nc(-n3c(C(F)F)nc4ccccc43)cc(N3CCOCC3)n2n1)N1CCC(O)CC1`
Output line: 11

Input line: I'd like to know its Fold Selectivity γ/δ. The compound in question is `CC(C)(O)C1CCN(C(=O)c2cc3nc(-n4c(C(F)F)nc5ccccc54)cc(N4CCOCC4)n3n2)CC1`
Output line: 25

Input line: I'd like to know its Fold Selectivity γ/δ. The compound in question is `FC(F)c1nc2ccccc2n1-c1cc(N2CCOCC2)n2nc(CNC3CCOCC3)cc2n1`
Output line: 11
